target: Cyclin-dependent kinase 6 (Homo sapiens); settings: at 1 µM;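 note: mean percent inhibition of the kinase bound to its cyclin partner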
Here, each record is paired with measured inhibition data.
Record the value in %, omitting the unit from your answer.

Record excerpt, results attached:
The compound listed as `c1ccc(Cc2nc3ccc(Nc4ncnc5ccccc45)cc3[nH]2)cc1` shows inhibition equal to 8.79

The compound listed as `CCS(=O)(=O)c1ccc(OC)c(Nc2ncc(-c3cccc(OC)c3)o2)c1` shows inhibition equal to 5.07

The compound listed as `Cc1nc(-c2ccccc2)n2nc(NCCCN3CCOCC3)ncc12` shows inhibition equal to 52.7

---
The compound listed as `CN(c1ccc(NC(=O)Nc2ccc(OC(F)(F)F)cc2)cc1)c1ccnc(Nc2cccc(S(N)(=O)=O)c2)n1` shows inhibition equal to 27.4

The compound listed as `ON=C1CCc2cc(-c3nc(C4CCNCC4)[nH]c3-c3ccncc3)ccc21` shows inhibition equal to -0.84

The compound listed as CCCN1CCCC(c2ccc(Nc3nc(Nc4cc(F)ccc4C(N)=O)c4cc[nH]c4n3)c(OC)c2)C1 (stereo not given) shows inhibition equal to 8.41

The compound listed as `COc1cc2ncnc(Nc3ccc(C)c(O)c3)c2cc1OC` shows inhibition equal to 4.49

The compound listed as `NS(=O)(=O)c1ccc(N/N=C2\C(=O)Nc3ccc(Cl)cc32)cc1` shows inhibition equal to 56.7

The compound listed as `Cc1ccc(Nc2ccnc(Nc3cccc(C(N)=O)c3)n2)cc1O` shows inhibition equal to -0.13

The compound listed as `Nc1nccc(C#Cc2cncnc2Nc2ccc(OCc3cccc(F)c3)c(Cl)c2)n1` shows inhibition equal to 2.5

Taken from ChEMBL document CHEMBL1961873.
